Origin of measurements: patent US20110039763A1

System: microorganisms
Experiment Notes: Peptide activities: targeting/binding, antimicrobial, growth or phenotype altering (Tables 7, 8);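 further: key B targeting or binding activity; M antimicrobial activity; G GROWTH or phenotype altering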
Type: cell-based
Recorded Conditions: peptides having multiple activities

>  <Substance>
PF-015: peptide having multiple activities (SIDKRNLYNLKYYE; Peptide with targeting and/or antimicrobial activity)

>  <Assayed System>
microorganisms

>  <Activities>
G B

$$$$
>  <Substance>
PF-393: peptide having multiple activities (chain 1 DLVQSILSEFKKSG; chain 2 DLVQSILSEFKKSG; Peptide with targeting and/or antimicrobial activity)

>  <Assayed System>
microorganisms

>  <Activities>
G B

$$$$
>  <Substance>
PF-203: peptide having multiple activities (SWKCHHLAI; Peptide with targeting and/or antimicrobial activity)

>  <Assayed System>
microorganisms

>  <Activities>
G B

$$$$
